Values were extracted from patent US9815796B2.

Target: human PDE2A1 (Homo sapiens (Human), UniProt O00408)
Sequence (O00408 other isoform, or with tags, fused parts or gaps): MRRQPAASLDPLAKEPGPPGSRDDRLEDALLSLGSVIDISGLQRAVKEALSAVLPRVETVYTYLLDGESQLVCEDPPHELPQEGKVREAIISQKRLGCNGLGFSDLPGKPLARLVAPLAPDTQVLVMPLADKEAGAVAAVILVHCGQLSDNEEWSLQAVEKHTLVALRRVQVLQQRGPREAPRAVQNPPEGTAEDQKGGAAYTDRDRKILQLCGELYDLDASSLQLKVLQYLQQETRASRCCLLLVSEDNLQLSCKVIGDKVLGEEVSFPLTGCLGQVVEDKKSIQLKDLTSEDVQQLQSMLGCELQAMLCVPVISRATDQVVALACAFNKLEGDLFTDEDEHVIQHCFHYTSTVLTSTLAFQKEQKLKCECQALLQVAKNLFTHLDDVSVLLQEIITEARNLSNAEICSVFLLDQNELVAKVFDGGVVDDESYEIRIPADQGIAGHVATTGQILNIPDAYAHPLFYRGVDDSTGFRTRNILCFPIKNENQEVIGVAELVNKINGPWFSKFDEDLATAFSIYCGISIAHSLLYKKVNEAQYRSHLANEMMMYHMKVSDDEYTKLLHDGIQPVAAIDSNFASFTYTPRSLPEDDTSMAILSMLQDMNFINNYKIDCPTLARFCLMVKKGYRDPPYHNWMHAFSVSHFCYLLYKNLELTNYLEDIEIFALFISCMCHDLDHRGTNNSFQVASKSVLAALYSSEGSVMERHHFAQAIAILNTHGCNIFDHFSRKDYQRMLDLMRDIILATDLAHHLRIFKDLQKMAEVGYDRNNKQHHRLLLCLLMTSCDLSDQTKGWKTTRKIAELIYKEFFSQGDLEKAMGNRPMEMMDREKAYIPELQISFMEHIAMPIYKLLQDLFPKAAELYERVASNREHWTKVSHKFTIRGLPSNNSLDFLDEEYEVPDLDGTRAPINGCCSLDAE
Experiment: IMAP FP PDE selectivity panel, human PDE2A1
Assay type: biochemical
Conditions: Human PDE2, Lab B; read-out: Human PDE2 Ki (nM) - Lab B
Procedure: Selectivity for PDE2, as compared to other PDE families, was assessed using the IMAP® technology. Human PDE 10A2 enzyme was prepared from cytosolic fractions of transiently transfected HEK cells. […] Assays for PDE 1 through 11 were performed in parallel at room temperature in 384-well microtiter plates with an incubation volume of 20.2 μL. […] The intrinsic PDE2 inhibitory activity of a compound which may be used in accordance with the present invention may be determined by these assays.
Below is a list of entries, each paired with its recorded Ki value.
Your answer should be a plain number; it is taken to be in nM.

TEST_SMILES | RECORDED_RESULT
Cc1nc(C(=O)NC2(c3ccc(OC(C)(C)C)cc3)CC2)cc(=O)[nH]1 | 58
CCc1nc(C(=O)N[C@](C)(CO)c2ccc(C(F)(F)F)cc2)cc(=O)[nH]1 | 12
O=C(NC1(c2ccc(SC(F)(F)F)c(F)c2)CC1)c1cc(=O)[nH]c(C2CC2)n1 | 20
Cc1nc(C(=O)NC2(c3ccc(OC(F)(F)F)cc3)CCC2)cc(=O)[nH]1 | 96
Cc1nc(C(=O)N[C@@H](c2ccc(C3CC3)c(F)c2)C(C)C)cc(=O)[nH]1 | 5.2

# input Consider the compound CC[C@@H](NC(=O)c1cc(=O)[nH]c(C(C)(C)c2ccc(OC)cc2)n1)c1ccc(OC(F)(F)F)cc1 and give its measured Ki.
# output 56

# input Consider the compound COc1ccc(Cc2nc(C(=O)N[C@@H](c3ccc(OC(F)(F)F)cc3)C(C)(C)C)cc(=O)[nH]2)cc1 and give its measured Ki.
# output 0.49

# input Consider the compound Cc1nc(C(=O)N[C@@H](c2ccc(OC(F)F)cc2)C(C)(C)C)cc(=O)[nH]1 and give its measured Ki.
# output 8.3

* * *

Molecular target: Rhesus PDE2A3 (Macaca mulatta, UniProt B3VTJ2)
Sequence (B3VTJ2 1-941): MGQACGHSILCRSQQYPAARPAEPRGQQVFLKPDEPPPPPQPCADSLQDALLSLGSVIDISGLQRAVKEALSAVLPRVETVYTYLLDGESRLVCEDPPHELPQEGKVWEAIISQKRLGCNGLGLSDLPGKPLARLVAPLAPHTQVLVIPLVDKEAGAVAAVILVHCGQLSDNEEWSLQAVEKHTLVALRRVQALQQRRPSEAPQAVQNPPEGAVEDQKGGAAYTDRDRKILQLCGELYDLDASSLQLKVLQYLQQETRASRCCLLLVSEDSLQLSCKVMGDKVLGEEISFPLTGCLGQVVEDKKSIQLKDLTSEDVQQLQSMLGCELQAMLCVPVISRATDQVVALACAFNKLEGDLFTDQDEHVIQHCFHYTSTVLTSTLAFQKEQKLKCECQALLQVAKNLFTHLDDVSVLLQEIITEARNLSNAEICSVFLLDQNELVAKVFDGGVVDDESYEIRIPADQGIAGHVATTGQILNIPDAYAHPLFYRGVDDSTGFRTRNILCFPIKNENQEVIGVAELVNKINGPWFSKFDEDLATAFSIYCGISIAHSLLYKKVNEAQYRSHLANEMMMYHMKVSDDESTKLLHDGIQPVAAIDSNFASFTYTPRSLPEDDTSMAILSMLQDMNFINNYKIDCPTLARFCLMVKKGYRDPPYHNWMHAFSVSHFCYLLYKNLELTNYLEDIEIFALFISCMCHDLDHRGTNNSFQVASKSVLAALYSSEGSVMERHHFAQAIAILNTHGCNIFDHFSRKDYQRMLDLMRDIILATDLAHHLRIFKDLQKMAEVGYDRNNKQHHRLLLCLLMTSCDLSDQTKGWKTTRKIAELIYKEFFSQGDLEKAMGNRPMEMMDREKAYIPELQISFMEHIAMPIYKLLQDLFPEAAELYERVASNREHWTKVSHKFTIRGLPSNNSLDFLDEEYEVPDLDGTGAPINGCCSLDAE
Assay: PDE2 fluorescence polarization (IMAP FP) inhibition assay, rhesus enzyme
Assay type: biochemical, rhesus macaque
Details: Rhesus PDE2, Lab B; read-out: Rhesus PDE2 Ki (nM) - Lab B
Below is a list of entries, each paired with its recorded Ki value.
Your answer should be a plain number; it is taken to be in nM.

Worked examples follow.
COMPOUND | TGT | UNIT_TEXT | RECORDED_RESULT
CC(C)(C)[C@@H](NC(=O)c1cc(=O)[nH]c(C2CC2)n1)c1ccc(C2CC2)c(F)c1 | Rhesus PDE2A3 (Macaca mulatta, UniProt B3VTJ2) | nM | 1.1
COc1ccc(Cc2nc(C(=O)N[C@@H](c3ccc(C(F)(F)F)cc3)C(C)(C)C)cc(=O)[nH]2)cc1 | Rhesus PDE2A3 (Macaca mulatta, UniProt B3VTJ2) | nM | 0.68
CC[C@@H](NC(=O)c1cc(=O)[nH]c(C2CC2)n1)c1ccc(SC(F)(F)F)c(F)c1 | Rhesus PDE2A3 (Macaca mulatta, UniProt B3VTJ2) | nM | 5.4
CC[C@@H](NC(=O)c1cc(=O)[nH]c(Cc2ccc(OC)c(F)c2)n1)c1ccc(S(F)(F)(F)(F)F)cc1 | Rhesus PDE2A3 (Macaca mulatta, UniProt B3VTJ2) | nM | 4.1
CC[C@@H](NC(=O)c1cc(=O)[nH]c(C2CC2)n1)c1ccc(S(F)(F)(F)(F)F)cc1 | Rhesus PDE2A3 (Macaca mulatta, UniProt B3VTJ2) | nM | 10
CC(NC(=O)c1cc(=O)[nH]c(-c2ccccc2)n1)c1ccc(-n2cncn2)cc1 (stereo not shown) | Rhesus PDE2A3 (Macaca mulatta, UniProt B3VTJ2) | nM | 356

# input Hello, I am looking for reported Ki with Rhesus PDE2A3 (Macaca mulatta, UniProt B3VTJ2) for Cc1nc(C(=O)NC(C)c2ccc(C(C)(C)C(F)(F)F)cc2)cc(=O)[nH]1 (single isomer, unassigned) [Example 695] . Could you help?
# output 473

# input Hello, I am looking for reported Ki with Rhesus PDE2A3 (Macaca mulatta, UniProt B3VTJ2) for CC(C)(NC(=O)c1cc(=O)[nH]c(-c2ccccc2)n1)c1cccc(Br)c1 . Could you help?
# output 1070

# input Hello, I am looking for reported Ki with Rhesus PDE2A3 (Macaca mulatta, UniProt B3VTJ2) for Cc1nc(C(=O)NC(C)(c2ccc(S(F)(F)(F)(F)F)cc2)C(C)C)cc(=O)[nH]1 (single isomer, unassigned) [Example 663] . Could you help?
# output 30

# input Hello, I am looking for reported Ki with Rhesus PDE2A3 (Macaca mulatta, UniProt B3VTJ2) for COc1ccc(Cc2nc(C(=O)N[C@@H](c3ccc(OC(F)(F)F)cc3)C3CC3)cc(=O)[nH]2)cc1 . Could you help?
# output 1.9

* * *

Target: human PDE2A1 (Homo sapiens (Human), UniProt O00408)
Experiment: IMAP FP PDE selectivity panel, human PDE2A1
Format: biochemical
Conditions: Human PDE2, Lab B; read-out: Human PDE2 Ki (nM) - Lab B
Would you mind sorting the entries by Ki according to these classes? bottom: < 9 nM; middle: ≥ 9 nM and < 40 nM; top: ≥ 40 nM

Below, 3 compounds whose answers are already recorded.
COMPOUND | ANSWER_LABEL
CC(C)[C@@H](NC(=O)c1cc(=O)[nH]c(-c2ccccc2)n1)c1ccc(OC(F)F)cc1 | bottom
CC(NC(=O)c1cc(=O)[nH]c(-c2ncccn2)n1)c1ccc(C(C)(C)C(F)(F)F)cc1 (single isomer, unassigned) [Example 701] | top
O=C(NC1(c2ccc3c(c2)OC(F)(F)O3)CC1)c1cc(=O)[nH]c(-c2ccccc2)n1 | middle

# input # bin label for COc1ccc(Cc2nc(C(=O)N[C@@H](c3ccc(S(F)(F)(F)(F)F)cc3)C(C)C)cc(=O)[nH]2)cc1
# output bottom

# input # bin label for CC[C@@H](NC(=O)c1cc(=O)[nH]c(Cc2ccc(OC)c(F)c2)n1)c1ccc(S(F)(F)(F)(F)F)cc1
# output bottom

# input # bin label for Cc1nc(C(=O)N[C@@H](c2ccc(S(F)(F)(F)(F)F)cc2)C(C)C)cc(=O)[nH]1
# output bottom

# input # bin label for CC(C)(C)[C@@H](NC(=O)c1cc(=O)[nH]c(-c2ccccc2)n1)c1ccc(C(F)(F)F)cc1
# output bottom

# input # bin label for COc1ccc(C(C)(C)c2nc(C(=O)N[C@@H](c3ccc(OC(F)(F)F)cc3)C(C)C)cc(=O)[nH]2)cc1
# output top

# input # bin label for CC(C)(C)[C@@H](NC(=O)c1cc(=O)[nH]c(-c2ncccn2)n1)c1ccc(C(F)(F)F)c([N+](=O)[O-])c1
# output top

# input # bin label for COc1cc(OC(F)(F)F)ccc1C(C)NC(=O)c1cc(=O)[nH]c(-c2ccccc2)n1 (centres unmarked)
# output bottom

# input # bin label for Cc1nc(C(=O)NC(C)(C)c2ccc(C(F)(F)F)c(F)c2)cc(=O)[nH]1
# output middle

# input # bin label for O=C(N[C@H](CC(F)(F)F)c1ccc(C(F)(F)F)cc1)c1cc(=O)[nH]c(-c2ccccc2)n1
# output middle

* * *

Target: UniProt:O00408
Assay: IMAP FP PDE selectivity panel, human PDE2A1
Type: biochemical
Settings: Human PDE2, Lab B; read-out: Human PDE2 Ki (nM) - Lab B
Binary call on Ki with cut-off 10 nM: strictly below means Met, and equality or higher means Not met.

Below, 5 compounds whose answers are already recorded.
COMPOUND | ANSWER_LABEL
CC1(c2ccc(C(NC(=O)c3cc(=O)[nH]c(-c4ncccn4)n3)C(C)(C)C)cc2F)CC1 (single isomer, unassigned) [Example 717] | Not met
CCc1nc(C(=O)NC(C)(C)c2ccc(C(F)(F)F)cc2)cc(=O)[nH]1 [Example 600] | Not met
Cc1nc(C(=O)NC2(c3ccc(C(F)F)c(F)c3)CC2)cc(=O)[nH]1 [Example 655] | Not met
Cc1nc(C(=O)N[C@@H](c2ccc(OC(F)F)cc2)C(C)C)cc(=O)[nH]1 [Example 611] | Not met
CC(NC(=O)c1cc(=O)[nH]c(C2CC2)n1)c1ccc(C(C)(C)C(F)(F)F)cc1 (single isomer, unassigned) [Example 697] | Not met

# input Given the entry Cc1nc(C(=O)N[C@H](C)c2ccc(C3(C)CC3)cc2)cc(=O)[nH]1 [Example 530] , would its reported Ki be below 10 nM?
# output Not met

# input Given the entry COc1ccc(Cc2nc(C(=O)N[C@@H](c3ccc(OC(F)(F)F)cc3)C(C)C)cc(=O)[nH]2)cc1 [Example 475] , would its reported Ki be below 10 nM?
# output Met

# input Given the entry CC(C)(C)[C@@H](NC(=O)c1cc(=O)[nH]c(-c2ccccc2)n1)c1ccc(C(F)(F)F)c(F)c1 [Example 538] , would its reported Ki be below 10 nM?
# output Met
